Each recorded value in this set is attributed to patent US4423029A.

Measured remaining at 360 h values are reported for all entries that follow.
assay-details: Hydrolytic stability in aqueous phosphate buffer
Format: physicochemical
particulars: 0.02 m phosphate buffer; pH 3.5, .02M Phosphate Buffer at 54° C.; read-out: % Remaining After 15 Days
I only need the number, in %, no unit after it.

{"compound": "CC(C)CCC(CO)NC(=O)[C@@H](N)CC(=O)O (some centres unmarked)", "reading": 88}

Attention now shifts to the item below.
Sample CC(C)CC[C@H](NC(=O)[C@@H](N)CC(=O)O)[C@H](C)O [Compound II] ; remaining at 360 h observed: 82

---

assay-details: Hydrolytic stability in aqueous phosphate buffer
Assay type: physicochemical
particulars: 0.02 m phosphate buffer; pH 7, .02M Phosphate Buffer at 54° C.; read-out: % Remaining After 15 Days
Measured remaining at 360 h values are reported for all entries that follow.
I only need the number, in %, no unit after it.

{"compound": "CC(C)CCC(CO)NC(=O)[C@@H](N)CC(=O)O (some centres unmarked)", "remaining at 360 h / %": 72}

Attention now shifts to the item below.
Sample "CC(C)CC[C@H](NC(=O)[C@@H](N)CC(=O)O)[C@H](C)O" ; remaining at 360 h observed: 86

---

assay-details: Hydrolytic stability in aqueous phosphate buffer
Assay type: physicochemical
particulars: 0.02 m phosphate buffer, pH 6.9, 66° C., pH start 6.9 (end 7.5), 0.02 M phosphate
Description: Stability tests were performed on the compound of formula (II) to determine the sweetener's resistance to hydrolysis under varying conditions. The tests were performed using solutions of (II) in aqueous phosphate buffer, 0.02 M, at pH 3.5 and 6.9. […] Samples from the test solutions were withdrawn at regular intervals and analyzed by reversed-phase high performance liquid chromatography for remaining intact (II), using the following conditions: […] Detection: UV absorbance at 220 nm (~2200 Å). […]
value-type: half-life
Reply with the number and its unit after it.

Sample "CC(C)CC[C@H](NC(=O)[C@@H](N)CC(=O)O)[C@H](C)O" ; half-life observed: 22 days

---

assay-details: Aqueous solubility and calculated maximum effective sweetening power
Format: physicochemical
particulars: lemonade; ditto mark; approximate (~)
value-type: solubility

Sample "CC(C)CC[C@H](NC(=O)[C@@H](N)CC(=O)O)[C@H](C)O" ; solubility observed: 30 to 40 mg/mL

---

assay-details: Hydrolytic stability in aqueous phosphate buffer
Type: physicochemical
particulars: 0.02 m phosphate buffer, pH 3.5, 66° C., pH start 3.5 (end 4.8), 0.02 M phosphate
value-type: half-life (days)
I only need the number, in days, no unit after it.

Sample "CC(C)CC[C@H](NC(=O)[C@@H](N)CC(=O)O)[C@H](C)O" ; half-life observed: 17

---

assay-details: Amide bond cleavage by monkey intestine homogenate
Assay type: in vitro ADME
particulars: pH 7.0, 37° C., up to two hours, standardized to Aspartame/rat = 100
Description: This aspartic acid has the same caloric value as sugar, on a per-gram basis. These aspartic acid amide sweeteners are therefore not non-nutritive, but, rather, low calorie. […] Aliquots of four mM solutions of test compounds in 100 mM potassium phosphate buffer solution at pH 7.0 were incubated at 37° C. […] At the end of the incubation period, the enzymes were inactivated by boiling and the extent of amide bond hydrolysis was quantified by measurement of free L-aspartic acid in the solution. […]
Residues, ends and D or L forms follow the SMILES beside them.
Measured Relative rate of amide bond cleavage values are reported for all entries that follow.

{"compound": "COC(=O)[C@H](Cc1ccccc1)NC(=O)[C@@H](N)CC(=O)O [Aspartame, L-aspartyl-L-phenylalanine methyl ester] (H-Asp-Phe-OMe)", "value-type": "Relative rate of amide bond cleavage", "reading": 157}
{"compound": "CC(C)CCCC(C)NC(=O)[C@@H](N)CC(=O)O (stereo partly shown)", "value-type": "Relative rate of amide bond cleavage", "reading": 68}
{"compound": "CC(C)CC[C@H](NC(=O)[C@@H](N)CC(=O)O)[C@H](C)O", "value-type": "Relative rate of amide bond cleavage", "reading": 0}

Attention now shifts to the item below.
Sample "CC(C)CC[C@@H](CO)NC(=O)[C@@H](N)CC(=O)O" ; Relative rate of amide bond cleavage observed: 103

---

assay-details: Aqueous solubility and calculated maximum effective sweetening power
Type: physicochemical
particulars: Water, pH 7, 20° C.; approximate (~)
value-type: solubility

Sample CC(C)CC[C@H](NC(=O)[C@@H](N)CC(=O)O)[C@H](C)O [Compound II] ; solubility observed: 30 to 40 mg/mL

---

assay-details: Hydrolytic stability in aqueous phosphate buffer
Type: physicochemical
particulars: 0.02 m phosphate buffer, pH 6.9, 43° C., pH start 6.9 (end 6.8), 0.02 M phosphate
value-type: half-life (days)
I only need the number, in days, no unit after it.

Sample CC(C)CC[C@H](NC(=O)[C@@H](N)CC(=O)O)[C@H](C)O [Compound II] ; half-life observed: 148

---

assay-details: Amide bond cleavage by rat intestine homogenate
Format: in vitro ADME
particulars: pH 7.0, 37° C., up to two hours, standardized to Aspartame/rat = 100
Answer False if Relative rate of amide bond cleavage is under 10, and True if it is 10 or more.

Decide: Relative rate of amide bond cleavage of "N[C@@H](CC(=O)O)C(=O)N[C@H](CO)Cc1ccccc1" >= 10?
True

---

assay-details: Amide bond cleavage by rat intestine homogenate
Format: in vitro ADME
particulars: pH 7.0, 37° C., up to two hours, standardized to Aspartame/rat = 100
Residues, ends and D or L forms follow the SMILES beside them.
value-type: Relative rate of amide bond cleavage

Field: example entries. Status: answers known.
{"compound": "CCCCCC(CO)NC(=O)[C@@H](N)CC(=O)O (stereo partly shown)", "Relative rate of amide bond cleavage": 35}
{"compound": "COC(=O)[C@H](Cc1ccccc1)NC(=O)[C@@H](N)CC(=O)O [Aspartame, L-aspartyl-L-phenylalanine methyl ester] (H-Asp-Phe-OMe)", "Relative rate of amide bond cleavage": 100}
{"compound": "N[C@@H](CC(=O)O)C(=O)Nc1ccc2ccccc2c1", "Relative rate of amide bond cleavage": 4}

Sample "CC(C)CC[C@@H](CO)NC(=O)[C@@H](N)CC(=O)O" ; Relative rate of amide bond cleavage observed: 35

Sample CC(C)CCCC(C)NC(=O)[C@@H](N)CC(=O)O (stereo partly shown) ; Relative rate of amide bond cleavage observed: 38

Sample "CC(C)CC[C@H](NC(=O)[C@@H](N)CC(=O)O)[C@H](C)O" ; Relative rate of amide bond cleavage observed: 0

Sample "CC(C)C[C@@H](CO)NC(=O)[C@@H](N)CC(=O)O" ; Relative rate of amide bond cleavage observed: 11
